Values were extracted from ChEMBL document CHEMBL3988442.

Reported Percent Effect values follow for various compounds
Molecular target: Protein translocase subunit SecA (Escherichia coli (strain K12))
Test: Assay to Identify E. coli SecA ATPase Inhibitors
Type: functional
Set-up: scale not given: direction of the effect not stated beside the values
Conditions: 30 µM
Potency and affinity values are given separately.
attribute measured: Percent Effect (%)

- compound: "N#Cc1ccnc(N2CCN(C(=O)Cc3ccc4c(c3)CCO4)CC2)c1"
  result: -5.74
- compound: "Nc1nccc(NCc2cc3n(n2)CCCN(C(=O)C2CCC2)C3)n1"
  result: -4.85
- compound: "CCOCC1CN(C(=O)c2cscn2)Cc2nnn(CC3CC3)c21 (stereo unspecified)"
  result: -0.829
- compound: "Cc1nccn1-c1cccc(C2CCCN2S(=O)(=O)N(C)C)n1 (stereo unspecified)"
  result: -4.04
- compound: "Cc1ccc(-c2nc(CN3CCOC(Cn4cccn4)C3)cs2)o1 (stereo unspecified)"
  result: 0.91
- compound: "CCc1nnc2n1CCN(C(=O)c1cc3ccc(F)cc3nc1C)C2"
  result: -5.47
